Tested on: K-562 leukemia
ASSAY_NAME: NCI tumour cell line growth inhibition, 48 h; in the data active = GI50 below about 0.43 µM; inactive = the rest
Please state which outcome applies, choosing from 1 = active, -1 = inactive

>>> assigned_class("CS(=O)(=O)CCNCc1ccc(-c2ccc3ncnc(Nc4ccc(OCc5ccccc5)c(Br)c4)c3c2)o1")
-1
>>> assigned_class("C=C1C(=O)O[C@H]2[C@H]1CC/C(COC(=O)c1cc3ccccc3o1)=C\\CC[C@@]1(C)O[C@@H]21")
-1
>>> assigned_class("O=C1CC(=O)N(C(=O)c2nn(-c3ccc(Cl)cc3)cc2O)N1")
1
>>> assigned_class("CNC(=O)c1ccc(N2C(=S)N(c3ccc(C#N)c(C(F)(F)F)c3)C(=O)C2(C)C)cc1F")
-1
>>> assigned_class("C=C(CN1CCN(c2cccc(C(F)(F)F)n2)CC1)c1ccc(C(=O)Nc2ccccc2N)cc1")
-1

Req: What did the test return for CCCN(CCC)c1ccc(/C=C/c2ccc3cc(OCC)ccc3n2)cc1 ?
Resp: -1

Req: Now consider c1cc(N2CCCN(c3ccc(C4=NCCCN4)cc3)CC2)ccc1C1=NCCCN1 and answer again.
Resp: -1

Req: Now give it for C[C@]12CC[C@@H]3c4cc(-c5ccc(F)cc5)c(O)cc4CC[C@H]3[C@@H]1CC[C@@H]2O too.
Resp: -1

Req: Field entry: COc1cc2ncn(-c3cc(O[C@@H](C)c4ccccc4Cl)c(C(N)=O)s3)c2cc1OC
Resp: -1

* * *

System: NCI/ADR-RES ovarian
ASSAY_NAME: NCI tumour cell line growth inhibition, 48 h
Quick list: TGI per entry.

Some compounds with known TGI results, for comparison:
>>> obs_value("O=C(O)c1ccc(Oc2nccc(-c3c(-c4ccc(F)cc4)ncn3C3CCNCC3)n2)cc1")
"> 25 µM"
>>> obs_value("CC1=C(C(=O)Nc2ccc(Cl)c(Cl)c2)C(c2cccc(Cl)c2)NC(=O)N1 (stereo not given)")
"33.5 µM"
>>> obs_value("C=CCN1C(=O)/C(=C\\c2cc(C(C)(C)C)c(O)c(C(C)(C)C)c2)NC1=S")
"> 100 µM"

Req: # get_value(readout='TGI', item= O=S(CC1(O)CCCCC1)c1ccccc1 (stereo not given) )
Resp: > 100 µM

Req: Can you check N#CC1C(=O)SC2c3ccccc3C(=O)c3ccccc3C12 (stereo not given) next?
Resp: > 10 µM

* * *

System: SK-OV-3 ovarian
ASSAY_NAME: NCI tumour cell line growth inhibition, 48 h
MEASURED_ATTRIBUTE: TGI

Answered examples (5):
>>> obs_value("O=C1CCCCCCCCCCC1CCCCCBr (stereo not drawn)")
"> 100 µM"
>>> obs_value("Cc1n[nH]c(=O)n1/N=C/c1ccc(F)cc1")
"> 100 µM"
>>> obs_value("COc1ccc(NC(=O)CC/C(CC(=O)C(C)(C)C)=N\\NC(=O)C(=O)NN)cc1")
"> 100 µM"
>>> obs_value("CC(=O)[C@@H]1C/C(=C\\OCc2ccccc2)O[C@H]1C")
"> 100 µM"
>>> obs_value("c1ccc2c(NCCCCCCNc3c4ccccc4nc4ccccc34)c3ccccc3nc2c1")
"4.31 µM"

Req: Requested field: TGI. Item: c1ccc(C2=NCCN2)c(C2=NCCN2)c1
Resp: > 100 µM

* * *

Tested on: CCRF-CEM leukemia
ASSAY_NAME: NCI tumour cell line growth inhibition, 48 h
Listed here: items and their measured TGI.

Worked examples follow.
>>> obs_value("CC(=O)NC1=C(NC(C)(C)C)C(=O)c2ccccc2C1=O")
"9.28 µM"
>>> obs_value("CCn1c(SCC(=O)N/N=C/c2ccccc2)nc2ccccc2c1=O")
"> 100 µM"
>>> obs_value("CCN1C(=O)C(=C/C=C/C=C2/N(C)c3ccccc3C2(C)C)C(=O)N(CC)C1=S")
"> 100 µM"
>>> obs_value("COc1cc(C2SCC(=O)N2c2ccc(-n3c(-c4ccccc4)nc4ccccc4c3=O)cc2)cc(OC)c1OC (configuration not stated)")
"> 100 µM"
>>> obs_value("COc1c(OC(C)C)c(OC(C)C)c2oc(=O)n3c2c1C(c1ccccc1-n1c(C)ccc1C)C=C3 (configuration not stated)")
"> 100 µM"
>>> obs_value("COc1ccc(P2(=S)Oc3ccccc3-c3ccccc3O2)cc1")
"> 100 µM"
>>> obs_value("COc1ccc(N2C(=O)[C@H]3[C@H]4CC(C(C)(C)C)CC[C@H]4c4c(n(C)c5ccccc45)[C@H]3C2=O)cc1 (some centres not stated)")
"> 100 µM"
>>> obs_value("CC(C)(C)[Si](C)(C)Oc1cc(CO)cc2c1cc(=N)o[n+]2[O-]")
"> 10 µM"

Below: the item to evaluate.
Req: Please look up its TGI: CSC1=Nc2ccccc2-c2nc3ccccc3cc2C1
Resp: > 100 µM
